tgt: T1, Taq DNA polymerase (Thermus aquaticus, UniProt P19821 1-832)
T1 construct: also called Taq enzyme; Taq DNA enzyme
methodNotes: AMC sensor, antibody immobilised
measurementKind: kon (M⁻¹ s⁻¹)
Record the value in M⁻¹ s⁻¹, omitting the unit from your answer.

Take a look at these entries with their results.
Mutation 1-25 (antibody, V domains shown, Mutation 1 background; CDRs built) VH: QVQLQQPGAELVKPGASVRLSCQTSVETFTTYYIYWVKQRPGEGLEWIGGINPTSGGPVFNEKFKSKATLTVDTSSSTAYMQLSSLTSVDSAVYYCTRSLVRRGYYFDYWGQGTALTVSS VL: DIQMTQTTSSLSASLGDRVTISCRASQDINNYVNWYQQKPDGTIKLLIYYTSRLHSGLPSRFSGSGSGTDYSLTIANLEQEDIATYFCQQDDTLPITFGAGTKVELKR ... 67300
Mutation 1-59 (antibody, V domains shown, Mutation 1 background; CDRs built) VH: QVQLQQPGAELVKPGASVRLSCQTSVNTFSTYYIYWVKQRPGEGLEWIGGLNPTSNPVFNEKFKSKATLTVDTSSSTAYMQLSSLTSVDSAVYYCTRSVIRRGYYFDYWGQGTALTVSS VL: DIQMTQTTSSLSASLGDRVTISCRASQDINNYINWYQQKPDGTIKLLIYYTSRLQSGLPSRFSGSGSGTDYSLTIANLEQEDIATYFCQQDDTVPLTFGAGTKVELKR ... 60400

Prompt: Return reported kon; argument: Mutation 1-26 (antibody, V domains shown, Mutation 1 background; CDRs built) VH: QVQLQQPGAELVKPGASVRLSCQTSVNTFSTYYIYWVKQRPGEGLEWIGGLNPTSGGPVFNEKFKSKATLTVDTSSSTAYMQLSSLTSVDSAVYYCTRSLIRRGYYFDYWGQGTALTVSS VL: DIQMTQTTSSLSASLGDRVTISCRASQDIQNYLNWYQQKPDGTIKLLIYYTSRLNSGLPSRFSGSGSGTDYSLTIANLEQEDIATYFCQQDDTLPLTFGAGTKVELKR
Response: 34000
